Quick reference for normalized SmoIP GFP fluorescence among some compounds
Tested on: Drosophila S2 cl14 SmoIP sensor cells;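 also: flow cytometry read-out as median GFP intensity of gated cells, compounds added 30 min before Hh-conditioned or mock medium, mock-treated cells serving as unstimulated baseline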
Experiment: normalized SmoIP GFP fluorescence (untreated unstimulated = 0%, untreated Hh-stimulated = 100%); higher = more Smo activation sensor fluorescence
Settings: stimulation: mock conditioned medium (-Hh); compound concentration: 2 uM; 24 h
Report as a plain number; the unit % is understood.

{"Compound": "COC(=O)c1ccc2c(c1)NC(=O)/C2=C(\\Nc1ccc(N(C)C(=O)CN2CCN(C)CC2)cc1)c1ccccc1", "Target Desc": "Drosophila S2 cl14 SmoIP sensor cells", "normalized SmoIP GFP fluorescence (%)": 7.92}
{"Compound": "NCCc1c[nH]cn1 [histamine-2hcl]", "Target Desc": "Drosophila S2 cl14 SmoIP sensor cells", "normalized SmoIP GFP fluorescence (%)": 1.21}
{"Compound": "O=C(c1ccc(OCCN2CCCCC2)cc1)c1c(-c2ccc(O)cc2)sc2cc(O)ccc12", "Target Desc": "Drosophila S2 cl14 SmoIP sensor cells", "normalized SmoIP GFP fluorescence (%)": 6.52}

# next compound below
normalized SmoIP GFP fluorescence in this record for `CC(C)(C)OC(=O)N[C@H]1CCCCC/C=C\[C@@H]2C[C@@]2(C(=O)NS(=O)(=O)C2CC2)NC(=O)[C@@H]2C[C@@H](OC(=O)N3Cc4cccc(F)c4C3)CN2C1=O` : 13

Cited source: the supplement of paper PMC5662767
